# protocolDescription: Oral bioavailability in Sprague-Dawley rat at 5 mg/kg
# Type: ADME, organism-based
# conditionsUsed: in vivo
attributeMeasured: bioavailability (%)
Lab book: enter the figure in %, no units written.

Query: Sample "COC(=O)N1CCC(CN2CCC(CNC(=O)c3cccc4[nH]c(C(C)C)nc34)CC2)CC1" — what was its bioavailability?
Response: 77

* * *

# testedSystem: 5-hydroxytryptamine receptor 4 (Homo sapiens, UniProt Q13639)
# Sequence (Q13639 whole entry): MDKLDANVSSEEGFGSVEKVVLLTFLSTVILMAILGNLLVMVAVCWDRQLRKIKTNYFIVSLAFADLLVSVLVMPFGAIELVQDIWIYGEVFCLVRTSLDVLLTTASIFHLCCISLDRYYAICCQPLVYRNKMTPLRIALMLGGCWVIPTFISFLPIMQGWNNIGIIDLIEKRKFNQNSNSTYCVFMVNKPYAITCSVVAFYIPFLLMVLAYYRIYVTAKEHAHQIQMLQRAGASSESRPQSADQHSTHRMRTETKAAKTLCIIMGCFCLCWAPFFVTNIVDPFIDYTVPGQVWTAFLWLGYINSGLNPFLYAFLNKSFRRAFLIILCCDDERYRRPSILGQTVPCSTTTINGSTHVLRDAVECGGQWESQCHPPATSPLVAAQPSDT
# protocolDescription: Binding affinity to human recombinant 5HT4 receptor
Threshold 2 nM. Ki below it: MET. Ki at it or above: NOT MET.

Query: Report whether reported Ki is lower than 2 nM (strictly) for "COC(=O)N1CCN(CCN2CCC(CNC(=O)c3cccc4[nH]c(C(C)C)nc34)CC2)CC1"
Response: MET

Query: Report whether reported Ki is lower than 2 nM (strictly) for CC(C)c1nc2c(C(=O)NCC3CCN(CC(O)CN4CCN(S(C)(=O)=O)CC4)CC3)cccc2[nH]1 (stereo not given)
Response: MET

Query: Report whether reported Ki is lower than 2 nM (strictly) for "CC(=O)N1CCN(CCN2CCC(CNC(=O)c3cccc4nc(C(C)C)[nH]c34)CC2)CC1"
Response: NOT MET

Query: Report whether reported Ki is lower than 2 nM (strictly) for CS(=O)(=O)N1CCN(CC(O)CN2CCC(NC(=O)c3cccc4[nH]cnc34)CC2)CC1 (stereo not given)
Response: NOT MET

Query: Report whether reported Ki is lower than 2 nM (strictly) for CC(C)(C)c1nc2cccc(C(=O)NCC3CCN(CC(O)CN4CCN(S(C)(=O)=O)CC4)CC3)c2[nH]1 (stereo not given)
Response: NOT MET

Query: Report whether reported Ki is lower than 2 nM (strictly) for CC(=O)N(C)CC(O)CN1CCC(CNC(=O)c2cccc3nc(C(C)C)[nH]c23)CC1 (stereo not given)
Response: NOT MET

Query: Report whether reported Ki is lower than 2 nM (strictly) for "CC(C)c1nc2c(C(=O)NCC3CCN(CCN4CCN(S(C)(=O)=O)CC4)CC3)cccc2[nH]1"
Response: MET

Query: Report whether reported Ki is lower than 2 nM (strictly) for "CC(=O)N1CCC(CN2CCC(CNC(=O)c3cccc4[nH]c(C(C)C)nc34)CC2)CC1"
Response: MET

Query: Report whether reported Ki is lower than 2 nM (strictly) for CS(=O)(=O)N1CCN(CC(O)CN2[C@@H]3CC[C@H]2C[C@@H](NC(=O)c2cccc4nc[nH]c24)C3)CC1 (stereo not given in full)
Response: NOT MET

Query: Report whether reported Ki is lower than 2 nM (strictly) for COC(=O)N(C)CC(O)CN1CCC(CNC(=O)c2cccc3nc(C(C)C)[nH]c23)CC1 (stereo not given)
Response: NOT MET
